Just for reference, ChEMBL document CHEMBL1152881 is where these values come from.

assay: Therapeutic index, ratio of CC50 for african green monkey Vero cells to EC50 for Dengue virus type 2; format: cell-based; conditions: read-out: TI
reported.metric: selectivity ratio

Prompt: Which selectivity ratio value is on record for `O=C(O)c1cnc2c(c1O)c(=O)n(Cc1ccccc1)c(=O)n2Cc1ccccc1` ?
Completion: > 18

----------
test: Therapeutic index, ratio of CC50 for african green monkey Vero cells to EC50 for Dengue virus type 2; type: cell-based; conditions: read-out: TI
reported.metric: selectivity ratio

Prompt: Quick one: selectivity ratio of `O=C(O)c1cnc2c(c1O)c(=O)n(Cc1ccccc1)c(=O)n2Cc1ccccc1` ?
Completion: > 16

----------
experiment: Cytotoxicity against african green monkey Vero cells; assay type: cell-based; settings: chlorocebus sabaeus
reported.metric: CC50

Prompt: I have this molecule here, `O=C(O)c1cnc2c(c1O)c(=O)n(Cc1ccccc1)c(=O)n2Cc1ccccc1` , and I need its recorded CC50.
Completion: > 100 µg/mL
